# System: Mythimna separata
# protocol: Insecticidal activity against Mythimna separata (Oriental armyworm) second-instar larvae reared on compound pre-treated corn disks assessed as larval mortality at 0.125 mg/L measured 7 days post compound treatment by leaf-dip method
# Type: functional
Task for the reader: assign each of the following molecules its reported mortality at 0.125 µg/mL.
Return type: number; implicit unit %.

[in] Note mortality at 0.125 µg/mL for the molecule shown: "O=C(NC(=O)c1c(F)cccc1F)Nc1ccc(Cl)cc1"
[out] 69.5

[in] Note mortality at 0.125 µg/mL for the molecule shown: "O=C(NC(=O)c1c(F)cccc1F)Nc1c(F)cc(C(F)(C(F)(F)F)C(F)(F)F)cc1F"
[out] 62.7

[in] Note mortality at 0.125 µg/mL for the molecule shown: "O=C(NC(=O)c1c(F)cccc1F)Nc1ccc(C(F)(C(F)(F)F)C(F)(F)F)cc1F"
[out] 63.3

[in] Note mortality at 0.125 µg/mL for the molecule shown: "Cc1cc(C(F)(C(F)(F)F)C(F)(F)F)cc(C)c1NC(=O)NC(=O)c1c(F)cccc1F"
[out] 50
